# Measured on: UniProt:P06401
# Sequence (P06401 whole entry): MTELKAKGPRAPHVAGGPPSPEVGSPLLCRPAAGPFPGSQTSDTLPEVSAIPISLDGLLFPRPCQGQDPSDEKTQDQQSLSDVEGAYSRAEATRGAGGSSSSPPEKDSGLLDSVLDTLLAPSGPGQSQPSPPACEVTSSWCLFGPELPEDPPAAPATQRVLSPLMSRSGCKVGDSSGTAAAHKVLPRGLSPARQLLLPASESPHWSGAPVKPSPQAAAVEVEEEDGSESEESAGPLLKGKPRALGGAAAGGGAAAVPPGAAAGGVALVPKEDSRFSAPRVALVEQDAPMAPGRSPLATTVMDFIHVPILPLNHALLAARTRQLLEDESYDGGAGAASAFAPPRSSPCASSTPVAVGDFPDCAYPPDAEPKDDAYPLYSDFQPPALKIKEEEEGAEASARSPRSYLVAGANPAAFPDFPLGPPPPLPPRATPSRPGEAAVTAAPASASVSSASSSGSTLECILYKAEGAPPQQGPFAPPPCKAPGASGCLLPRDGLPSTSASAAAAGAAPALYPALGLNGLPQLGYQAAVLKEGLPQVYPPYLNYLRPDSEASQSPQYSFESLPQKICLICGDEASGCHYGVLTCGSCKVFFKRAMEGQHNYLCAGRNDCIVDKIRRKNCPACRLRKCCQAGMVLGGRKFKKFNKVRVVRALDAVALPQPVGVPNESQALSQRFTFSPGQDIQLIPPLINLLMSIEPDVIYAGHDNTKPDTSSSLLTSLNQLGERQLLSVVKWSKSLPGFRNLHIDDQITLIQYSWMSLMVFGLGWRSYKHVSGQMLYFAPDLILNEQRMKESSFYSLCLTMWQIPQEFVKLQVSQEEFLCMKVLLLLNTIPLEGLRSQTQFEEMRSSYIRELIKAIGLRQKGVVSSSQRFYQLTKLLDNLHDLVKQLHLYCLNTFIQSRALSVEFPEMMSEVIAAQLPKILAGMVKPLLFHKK
# Procedure summary: Progesterone receptor-antagonistic action in stably transfected SK-N-MC cells, MMTV-LUC reporter (PR-B)
# Measurement setup: antagonistic potency vs 0.1 nmol/l promegestone, 24 hours
pIC50: −log10 of the molar value.
Think of 9 as a floor: if pIC50 stands on it or above, it is met; beneath it, not met.

Q: API: above_or_equal(metric=pIC50, cutoff=9) for item "C[C@]12C[C@H](c3ccc(COC(=O)Nc4ccccc4)cc3)C3=C4CCC(=O)C=C4CC[C@H]3[C@@H]1CC[C@@]2(O)C(F)(F)C(F)(F)F"
Ans: met

Q: Now the molecule "C[C@]12C[C@H](c3ccc(CCc4ccccn4)cc3)C3=C4CCC(=O)C=C4CC[C@H]3[C@@H]1CC[C@@]2(O)C(F)(F)C(F)(F)F"
Ans: met

Q: Now the molecule "C[C@]12C[C@H](c3ccc(-c4nnn[nH]4)cc3)C3=C4CCC(=O)C=C4CC[C@H]3[C@@H]1CC[C@@]2(O)C(F)(F)C(F)(F)F"
Ans: not met
